// provenance: patent US10662222B2

Test system: Caco-2 cell monolayers
assay_remarks: Trans-epithelial electrical resistance (TEER) of Caco-2 monolayers after apical peptide application
Assay type: cell-based, human
cond: 5 mM, apical application to Caco-2 cell monolayers
Experimental: An immortalized human intestinal epithelial cell line (Caco-2) were maintained in DMEM/F12 medium (Gibco, Paisley, UK) supplemented with 10% FBS, 2 mM L-glutamine (Gibco) 100 U/ml penicillin and 100 μg/ml streptomycin (Gibco). […] TEER values were calculated by subtracting blank filter reading and normalized as a percentage of the initial TEER value for that monolayer. […] Blood glucose levels were expressed as a percentage of the baseline glucose levels for each animal. […]
recorded_endpoint: Efficacy at 5 mM (TEER reduction)

See these solved cases before continuing.
NH2-RRK TVKYDRR-NH2 (H-RRKTVKYDRR-NH2) [compound 5] :: No
NH2-RRV EVKYDRR-NH2 [peptide 640] :: Yes
NH2-RRV TVKYDRR-NH2 (H-RRVTVKYDRR-NH2) [peptide 1] :: No
NH2-RRVpTVKYKRR-NH2 (RRVTVKYKRR; HELM PEPTIDE1{R.R.V.[C[C@@H](OP(=O)(O)O)[C@H](N[*:1])C(=O)[*:2]].V.K.Y.K.R.R.[am]}$$$$V2.0; SMILES CC(C)[C@H](NC(=O)[C@H](CCCNC(=N)N)NC(=O)[C@@H](N)CCCNC(=N)N)C(=O)N[C@H](C(=O)N[C@H](C(=O)N[C@@H](CCCCN)C(=O)N[C@@H](Cc1ccc(O)cc1)C(=O)N[C@@H](CCCCN)C(=O)N[C@@H](CCCNC(=N)N)C(=O)N[C@@H](CCCNC(=N)N)C(N)=O)C(C)C)[C@@H](C)OP(=O)(O)O) [compound 4] :: No

stdin: Note Efficacy at 5 mM (TEER reduction) for the substance shown: NH2-RRV TVKYKRR-NH2 (H-RRVTVKYKRR-NH2) [compound 3]
stdout: No

stdin: Let me know recorded Efficacy at 5 mM (TEER reduction) for NH2-RRVpTVKYDRR-NH2 (RRVTVKYDRR; HELM PEPTIDE1{R.R.V.[C[C@@H](OP(=O)(O)O)[C@H](N[*:1])C(=O)[*:2]].V.K.Y.D.R.R.[am]}$$$$V2.0; SMILES CC(C)[C@H](NC(=O)[C@H](CCCNC(=N)N)NC(=O)[C@@H](N)CCCNC(=N)N)C(=O)N[C@H](C(=O)N[C@H](C(=O)N[C@@H](CCCCN)C(=O)N[C@@H](Cc1ccc(O)cc1)C(=O)N[C@@H](CC(=O)O)C(=O)N[C@@H](CCCNC(=N)N)C(=O)N[C@@H](CCCNC(=N)N)C(N)=O)C(C)C)[C@@H](C)OP(=O)(O)O) [peptide 2] , thanks.
stdout: No
